Attribution: patent US20250304620A1

- Test system: Corynebacterium ATCC 7715
- Format: cell-based
Non-standard residues stand in square brackets, D forms with d. Residues, ends and D or L forms follow the SMILES beside them. dPhe(3,4-F2) = N[C@H](Cc1ccc(F)c(F)c1)C(=O)O; d2Nal = N[C@H](Cc1ccc2ccccc2c1)C(=O)O
In this section, each of the compounds is paired with its reported MIC Corynebacterium ATCC 7715.
Please reply with the bare figure in µg/mL and do not write the unit itself.

# COMPOUND, STUDY TARGET, MIC Corynebacterium ATCC 7715, µg/mL
data = [
    ("CC(=O)N[C@H](CCCNC(=N)N)C(=O)N[C@H](CCCCN)C(=O)N[C@H](CC(C)C)C(=O)N[C@H](CC(C)C)C(=O)N[C@H](Cc1ccc2ccccc2c1)C(=O)N[C@H](CCCNC(=N)N)C(=O)N[C@H](CC(C)C)C(=O)N[C@H](CCCCN)C(=O)N[C@H](Cc1ccccc1)C(=O)N[C@H](CCCNC(=N)N)C(=O)N[C@H](CCCCN)C(N)=O [LV-4] (Ac-[dR][dK][dL][dL][d2Nal][dR][dL][dK][dF][dR][dK]-NH2)", "Corynebacterium ATCC 7715", 2),
]

Attention now turns to another entry.
Enquiry: Dear colleague, please send me the reported MIC Corynebacterium ATCC 7715 for CC(=O)N[C@H](CCCCN)C(=O)N[C@H](CCCCN)C(=O)N[C@H](CC(C)C)C(=O)N[C@H](CC(C)C)C(=O)N[C@H](Cc1ccc(F)c(F)c1)C(=O)N[C@H](CCCNC(=N)N)C(=O)N[C@H](CC(C)C)C(=O)N[C@H](CCCCN)C(=O)N[C@H](Cc1ccc(F)c(F)c1)C(=O)N[C@H](CCCNC(=N)N)C(=O)N[C@H](CCCCN)C(N)=O [LV-25] (Ac-[dK][dK][dL][dL][dPhe(3,4-F2)][dR][dL][dK][dPhe(3,4-F2)][dR][dK]-NH2) when you can.
Return: 2

---

- Test system: Escherichia coli ATCC 25922
- PROTOCOL SUMMARY: Oral formulations on mice with systemic bacterial infection
- Format: in vivo, ICR mice
- SETTINGS: 0.2 mg/kg gavage, three times a day for 7 days, n = 10
Non-standard residues stand in square brackets, D forms with d. Residues, ends and D or L forms follow the SMILES beside them. dPhe(3,4-F2) = N[C@H](Cc1ccc(F)c(F)c1)C(=O)O; d2Nal = N[C@H](Cc1ccc2ccccc2c1)C(=O)O
ATTRIBUTE MEASURED: Number of mice that died on each day after infection: day 8 (Mouse)
Please reply with the bare figure in Mouse and do not write the unit itself.

# COMPOUND, MEASUREMENT
data = [
    ("CC(=O)N[C@H](CCCNC(=N)N)C(=O)N[C@H](CCCCN)C(=O)N[C@H](CC(C)C)C(=O)N[C@H](CC(C)C)C(=O)N[C@H](Cc1ccccc1)C(=O)N[C@H](CCCNC(=N)N)C(=O)N[C@H](CC(C)C)C(=O)N[C@H](CCCCN)C(=O)N[C@H](Cc1ccccc1)C(=O)N[C@H](CCCNC(=N)N)C(=O)N[C@H](CCCCN)C(N)=O [LV-2] (Ac-[dR][dK][dL][dL][dF][dR][dL][dK][dF][dR][dK]-NH2)", 1),
    ("CC(=O)N[C@H](CCCNC(=N)N)C(=O)N[C@H](CCCCN)C(=O)N[C@H](CC(C)C)C(=O)N[C@H](CC(C)C)C(=O)N[C@H](Cc1ccc(F)c(F)c1)C(=O)N[C@H](CCCCN)C(=O)N[C@H](CC(C)C)C(=O)N[C@H](CCCCN)C(=O)N[C@H](Cc1ccc(F)c(F)c1)C(=O)N[C@H](CCCCN)C(=O)N[C@H](CCCNC(=N)N)C(N)=O [LV-6] (Ac-[dR][dK][dL][dL][dPhe(3,4-F2)][dK][dL][dK][dPhe(3,4-F2)][dK][dR]-NH2)", 0),
    ("CC(=O)N[C@H](CCCNC(=N)N)C(=O)N[C@H](CCCNC(=N)N)C(=O)N[C@H](CC(C)C)C(=O)N[C@H](CC(C)C)C(=O)N[C@H](Cc1ccc2ccccc2c1)C(=O)N[C@H](CCCNC(=N)N)C(=O)N[C@H](CC(C)C)C(=O)N[C@H](CCCNC(=N)N)C(=O)N[C@H](Cc1ccc2ccccc2c1)C(=O)N[C@H](CCCNC(=N)N)C(=O)N[C@H](CCCNC(=N)N)C(N)=O [LV-1] (Ac-[dR][dR][dL][dL][d2Nal][dR][dL][dR][d2Nal][dR][dR]-NH2)", 1),
]

Enquiry: Dear colleague, please send me the reported Number of mice that died on each day after infection: day 8 for CC(=O)N[C@H](CCCNC(=N)N)C(=O)N[C@H](CCCCN)C(=O)N[C@H](CC(C)C)C(=O)N[C@H](CC(C)C)C(=O)N[C@H](Cc1ccc2ccccc2c1)C(=O)N[C@H](CCCNC(=N)N)C(=O)N[C@H](CC(C)C)C(=O)N[C@H](CCCCN)C(=O)N[C@H](Cc1ccc2ccccc2c1)C(=O)N[C@H](CCCNC(=N)N)C(=O)N[C@H](CCCCN)C(N)=O [LV-20] (Ac-[dR][dK][dL][dL][d2Nal][dR][dL][dK][d2Nal][dR][dK]-NH2) when you can.
Return: 0

Enquiry: Dear colleague, please send me the reported Number of mice that died on each day after infection: day 8 for CC(=O)N[C@H](CCCCN)C(=O)N[C@H](CCCCN)C(=O)N[C@H](CC(C)C)C(=O)N[C@H](CC(C)C)C(=O)N[C@H](Cc1ccc2ccccc2c1)C(=O)N[C@H](CCCCN)C(=O)N[C@H](CC(C)C)C(=O)N[C@H](CCCCN)C(=O)N[C@H](Cc1ccc2ccccc2c1)C(=O)N[C@H](CCCCN)C(=O)N[C@H](CCCCN)C(N)=O [LV-17] (Ac-[dK][dK][dL][dL][d2Nal][dK][dL][dK][d2Nal][dK][dK]-NH2) when you can.
Return: 2

---

- Tested on: Pseudomonas aeruginosa ATCC 27853
- PROTOCOL SUMMARY: Injectable formulations on mice infected with peritonitis
- Type: in vivo, ICR mice
- SETTINGS: 0.2 mg/kg via tail vein, twice a day for 3 days, n = 10
Non-standard residues stand in square brackets, D forms with d. Residues, ends and D or L forms follow the SMILES beside them. dPhe(3,4-F2) = N[C@H](Cc1ccc(F)c(F)c1)C(=O)O; d2Nal = N[C@H](Cc1ccc2ccccc2c1)C(=O)O
ATTRIBUTE MEASURED: Number of mice that died on each day after infection: day 3 (Mouse)
Please reply with the bare figure in Mouse and do not write the unit itself.

Worked examples follow.
# MOLECULE, STUDY TARGET, MEASUREMENT
data = [
    ("CC(=O)N[C@H](CCCNC(=N)N)C(=O)N[C@H](CCCCN)C(=O)N[C@H](CC(C)C)C(=O)N[C@H](CC(C)C)C(=O)N[C@H](Cc1ccc2ccccc2c1)C(=O)N[C@H](CCCCN)C(=O)N[C@H](CC(C)C)C(=O)N[C@H](CCCCN)C(=O)N[C@H](Cc1ccc2ccccc2c1)C(=O)N[C@H](CCCCN)C(=O)N[C@H](CCCNC(=N)N)C(N)=O [LV-18] (Ac-[dR][dK][dL][dL][d2Nal][dK][dL][dK][d2Nal][dK][dR]-NH2)", "Pseudomonas aeruginosa ATCC 27853", 1),
    ("CC(=O)N[C@H](CCCCN)C(=O)N[C@H](CCCCN)C(=O)N[C@H](CC(C)C)C(=O)N[C@H](CC(C)C)C(=O)N[C@H](Cc1ccc(F)c(F)c1)C(=O)N[C@H](CCCNC(=N)N)C(=O)N[C@H](CC(C)C)C(=O)N[C@H](CCCCN)C(=O)N[C@H](Cc1ccc(F)c(F)c1)C(=O)N[C@H](CCCNC(=N)N)C(=O)N[C@H](CCCCN)C(N)=O [LV-25] (Ac-[dK][dK][dL][dL][dPhe(3,4-F2)][dR][dL][dK][dPhe(3,4-F2)][dR][dK]-NH2)", "Pseudomonas aeruginosa ATCC 27853", 1),
]

Attention now turns to another entry.
Enquiry: Dear colleague, please send me the reported Number of mice that died on each day after infection: day 3 for CC(=O)N[C@H](CCCNC(=N)N)C(=O)N[C@H](CCCCN)C(=O)N[C@H](CC(C)C)C(=O)N[C@H](CC(C)C)C(=O)N[C@H](Cc1ccccc1)C(=O)N[C@H](CCCNC(=N)N)C(=O)N[C@H](CC(C)C)C(=O)N[C@H](CCCCN)C(=O)N[C@H](Cc1ccccc1)C(=O)N[C@H](CCCNC(=N)N)C(=O)N[C@H](CCCCN)C(N)=O [LV-2] (Ac-[dR][dK][dL][dL][dF][dR][dL][dK][dF][dR][dK]-NH2) when you can.
Return: 1
